tested on: MYB; test: RT-qPCR splicing assay, MYB AJ/CJ mRNA; format: cell-based; details: Homo sapiens, increase in alternative junction mRNA, A673 or K562 cells, 24 hours
Record form. Attribute: AC50. Fill in for each entry.

c1cnn(-c2ccc3c(c2)COc2nc(N(C4CCNCC4)C4CC4)ccc2-3)c1 | > 10 µM

Hey, quick one: what's AC50 for each of these?
1. c1cnn(-c2ccc3c(c2)COc2nc(N4CC5(CCNCC5)C4)ccc2-3)c1
2. Cc1cc(-c2ccc3c(c2)COc2nc(N4CC[C@H](NC(C)(C)C)C4)ccc2-3)cnn1 (single isomer, unassigned)

1: > 10 µM; 2: > 10 µM

Dear colleague, I am looking for the recorded AC50 of the following compound: CN(c1cnc2c(n1)OCc1cc(-c3cn[nH]c3)ccc1-2)C1CC(C)(C)NC(C)(C)C1
1 to 10 µM

====

system: HTT; test: RT-qPCR splicing assay, HTT AJ/CJ mRNA; assay type: cell-based, human; conditions: Homo sapiens, 24 h, decrease in canonical junction mRNA, A673 or K562 cells
pIC50: −log10 of the molar value.
Please provide measured pIC50 for the entries that follow.

CN(c1ccc2c(n1)OCc1cc(-n3cccn3)ccc1-2)[C@@H]1C[C@H]2CCC[C@@H](C1)N2 | > 7.00

Quick request: pIC50 for each listed item, please.
1. CN(c1ccc2c(n1)CCOc1cc(-n3cccn3)ccc1-2)[C@@H]1C[C@H]2CC[C@@H](C1)N2
2. CN(c1ccc2c(n1)OCc1cc(-c3cnc(=O)[nH]c3)ccc1-2)[C@@H]1C[C@H]2CC[C@@H](C1)N2
3. c1cnn(-c2ccc3c(c2)COc2nc(NC4CNC4)ccc2-3)c1

["< 5.00", "< 5.00", "< 5.00"]

====

tested on: HTT; experiment: RT-qPCR splicing assay, HTT AJ/CJ mRNA; type: cell-based, human; settings: Homo sapiens, 24 h, decrease in canonical junction mRNA, A673 or K562 cells
Record form. Attribute: IC50. Fill in for each entry.

COc1cc(-c2ccc3c(c2)COc2nc(N4CCC(N(C)C(C)C)C4)ccc2-3)cnn1 (stereo not drawn) [Compound 311] | 100 to 1000 nM

Quick one: give me IC50 for each item below, same order please.
1. CCN(c1ccc2c(n1)OCc1cc(-n3cccn3)ccc1-2)C1CC(C)(C)NC(C)(C)C1 [Compound 189]
2. CC1(C)CC(Oc2ccc3c(n2)OCc2cc(-c4cn[nH]c4)c(F)cc2-3)CC(C)(C)N1 [Compound 234]
3. Cc1cc(-c2ccc3c(c2)COc2nc(N4CC[C@H](NC(C)(C)C)C4)ccc2-3)cnn1 (single isomer, unassigned) [Compound 273]
4. Cc1cc(-c2ccc3c(c2)COc2nc(N4CC[C@@H](NC(C)(C)C)C4)ccc2-3)cnn1 (single isomer, unassigned) [Compound 274]
5. COc1cc(-c2ccc3c(c2)COc2nc(OC4CC(C)(C)NC(C)(C)C4)ncc2-3)cnn1 [Compound 299]
6. c1cc2c(cc1-c1cn[nH]c1)OCCc1nc(N[C@@H]3C[C@H]4CC[C@@H](C3)N4)ccc1-2 [Compound 140]
7. [2H]C([2H])([2H])N(c1ccc2c(n1)OCc1cc(-n3cccn3)ccc1-2)C1CCNCC1 [Compound 176]

1: > 10000 nM; 2: < 100 nM; 3: > 10000 nM; 4: 1000 to 10000 nM; 5: 100 to 1000 nM; 6: > 10000 nM; 7: 1000 to 10000 nM

====

Assign IC50 to each entry below.
test system: HTT; test: RT-qPCR splicing assay, HTT AJ/CJ mRNA; assay type: cell-based, human; details: Homo sapiens, 24 h, decrease in canonical junction mRNA, A673 or K562 cells

CN(c1ccc2c(c1)COc1cc(-n3cccn3)ccc1-2)C1CC(C)(C)NC(C)(C)C1 [Compound 117] | > 10 µM
c1cc2c(cc1-c1cn[nH]c1)COc1nc(N3CCC(NC4CC4)C3)ccc1-2 (stereo not drawn) [Compound 211] | < 0.1 µM
c1cnn(-c2ccc3c(c2)COc2nc(O[C@@H]4C[C@H]5CC[C@@H](C4)N5)ccc2-3)c1 [Compound 188] | 0.1 to 1 µM
FC1(F)CC2CC(Oc3ccc4c(n3)OCc3cc(-n5nccn5)ccc3-4)CC1N2 (stereo not drawn) [Compound 235] | > 10 µM

Hi there! I need IC50 for each item below, if you can.
1. CN(c1ccc2c(n1)OCc1cc(-c3ccn(C)c(=O)c3)ccc1-2)[C@@H]1C[C@H]2CC[C@@H](C1)N2 [Compound 153]
2. CN(c1ccc2c(n1)COc1cc(-n3cccn3)ccc1-2)C1CC(C)(C)NC(C)(C)C1 [Compound 125]
3. CN(c1ccc2c(n1)OCc1cc(-n3nccn3)ccc1-2)C1CC2CC(F)(F)C(C1)N2 (stereo not drawn) [Compound 239]
4. COc1cc(-c2ccc3c(c2)COc2nc(N4CCNC(C(C)(C)C)C4)ccc2-3)cnn1 (stereo not drawn) [Compound 304]
5. COc1cc(-c2ccc3c(c2)COc2nc(N4CC[C@H](N(C)C(C)(C)C)C4)ccc2-3)cnn1 [Compound 270]
6. CN(c1ccc2c(n1)OCc1cc(-c3cc(=O)n(C)cn3)ccc1-2)[C@@H]1C[C@H]2CC[C@@H](C1)N2 [Compound 162]
7. CC1(C)CC(N(c2ccc3c(n2)OCc2cc(-n4cccn4)ccc2-3)C2CC2)CC(C)(C)N1 [Compound 204]

1. < 0.1 µM
2. > 10 µM
3. 0.1 to 1 µM
4. < 0.1 µM
5. < 0.1 µM
6. < 0.1 µM
7. 1 to 10 µM

For each of the items listed, what is its IC50?
1. c1cnn(-c2ccc3c(c2)COc2nc(N4CCC5(CCCNC5)C4)ccc2-3)c1 (stereo not drawn) [Compound 183]
2. CC1(C)CC(Oc2ccc3c(n2)OCc2cc(-n4cccn4)ccc2-3)CCN1 (stereo not drawn) [Compound 186]
3. CN(c1ccc2c(n1)OCc1cc(-c3cn[nH]c3)c(F)cc1-2)C1CC(C)(C)NC(C)(C)C1 [Compound 233]
4. COc1cc(-c2ccc3c(c2)COc2nc(OC4CC5CC(F)(F)C(C4)N5)ccc2-3)cnn1 (stereo not drawn) [Compound 225]
5. c1cnn(-c2ccc3c(c2)COc2nc(N4CCC5(CCNC5)CC4)ccc2-3)c1 [Compound 184]
6. CN(c1ccc2c(n1)OCc1cc(-n3ccnc3)ccc1-2)[C@@H]1C[C@H]2CC[C@@H](C1)N2 [Compound 163]
7. CN(c1ccc2c(n1)OCc1cc(-n3cc(N)cn3)ccc1-2)[C@@H]1C[C@H]2CC[C@@H](C1)N2 [Compound 172]
8. COc1cc(-c2ccc3c(c2)COc2nc(N4CCN[C@@H](C5CC5)C4)ccc2-3)cnn1 [Compound 296]

> 10 µM
1 to 10 µM
< 0.1 µM
0.1 to 1 µM
1 to 10 µM
< 0.1 µM
0.1 to 1 µM
0.1 to 1 µM

Please state IC50 for every compound in the list that follows.
1. c1cnn(-c2ccc3c(c2)COc2nc(N(C4CC4)[C@@H]4C[C@H]5CC[C@@H](C4)N5)ccc2-3)c1 [Compound 205]
2. COc1cc(-c2ccc3c(c2)COc2nc(N(C)[C@@H]4C[C@H]5CC[C@@H](C4)N5)ccc2-3)ccn1 [Compound 156]

1. 1 to 10 µM
2. < 0.1 µM

====

test system: MYB; experiment: RT-qPCR splicing assay, MYB AJ/CJ mRNA; format: cell-based; details: Homo sapiens, increase in alternative junction mRNA, A673 or K562 cells, 24 hours
For each entry below, report its AC50 value.

Use the examples below as a reference point.
c1cnn(-c2ccc3c(c2)COc2nc(N4C[C@H]5CNC[C@H]5C4)ccc2-3)c1 | 1 to 10 µM
COc1cc(-c2ccc3c(c2)COc2nc(N(C)C4CC(C)(C)NC(C)(C)C4)ncc2-3)cnn1 | 1 to 10 µM
c1cnn(-c2ccc3c(c2)OCc2nc(N[C@@H]4C[C@H]5CC[C@@H](C4)N5)ccc2-3)c1 | > 10 µM

Then this compound:
Which AC50 is listed for CC(C)(C)NC1CCN(c2ccc3c(n2)OCc2cc(-n4nccn4)ccc2-3)C1 (stereo not shown) [Compound 250, 2,2,2-trifluoroacetate] ?
1 to 10 µM

====

Test system: MYB
Test: RT-qPCR splicing assay, MYB AJ/CJ mRNA
Format: cell-based
Details: Homo sapiens, increase in alternative junction mRNA, A673 or K562 cells, 24 hours
Protocol: Compounds described herein were used to modulate RNA transcript abundance in cells. The expression of a target mRNA was measured by detecting the formation of an exon-exon junction in the canonical transcript (CJ). A compound mediated exon-inclusion event was detected by observing an increase in formation OF A new junction with an alternative exon (AJ). Real-time qPCR assays were used to detect these splicing switches and interrogate the potency of various compounds towards different target Genes. […]
propertyName: AC50

Known results for compounds:
C[C@]12CC[C@](C)(C[C@@H](Oc3ccc4c(n3)OCc3cc(-n5cccn5)ccc3-4)C1)N2 [Compound 228] | 1 to 10 µM
Cn1ncc(-c2ccc3c(c2)COc2nc(OC4CC5CC(F)(F)C(C4)N5)ccc2-3)cc1=O (stereo not drawn) [Compound 261] | > 10 µM
c1cnn(-c2ccc3c(c2)COc2nc(OC4CCNCC4)ccc2-3)c1 [Compound 187] | > 10 µM

Would you be so kind as to report AC50 for each listed record?
1. CC1(NC2CCN(c3ccc4c(n3)OCc3cc(-n5nccn5)ccc3-4)C2)CC1 (stereo not drawn) [Compound 252]
2. COc1cc(-c2ccc3c(c2)COc2nc(N4CCC(NC5(C)CC5)C4)ccc2-3)cnn1 (stereo not drawn) [Compound 256]
3. c1cnn(-c2ccc3c(c2)COc2nc(S[C@@H]4C[C@H]5CC[C@@H](C4)N5)ccc2-3)c1 [Compound 193]
4. CN(c1ccc2c(n1)OCCc1cc(-c3cn[nH]c3)ccc1-2)[C@@H]1C[C@H]2CC[C@@H](C1)N2 [Compound 146]
5. COc1cc(-c2ccc3c(c2)COc2nc(N4CCN[C@@H](C(C)(C)C)C4)ccc2-3)cnn1 [Compound 318]
6. COc1cc(-c2ccc3c(c2)COc2nc(N(C)C4CC(C)(C)NC(C)(C)C4)ccc2-3)cnn1 [Compound 231]
7. COc1cc(-c2ccc3c(c2)COc2nc(N4CC[C@H](NC(C)(C)C)C4)ncc2-3)cnn1 [Compound 279]
8. COc1cc(-c2ccc3c(c2)COc2nc(N4CCC(NC(C)(C)C)C4)ccc2-3)cnn1 (stereo not drawn) [Compound 251]

1 to 10 µM
1 to 10 µM
> 10 µM
> 10 µM
0.1 to 1 µM
1 to 10 µM
1 to 10 µM
0.1 to 1 µM

State the recorded AC50 for every item in the following list.
1. CNC1CCN(c2ccc3c(n2)OCc2cc(-c4cnnc(OC)c4)ccc2-3)CC1 [Compound 300]
2. COc1cc(-c2ccc3c(c2)COc2nc(OC4CC(C)(C)NC(C)(C)C4)ncc2-3)cnn1 [Compound 299]
3. CN(c1ccc2c(c1)COc1cc(-n3cccn3)ccc1-2)C1CC(C)(C)NC(C)(C)C1 [Compound 117]
4. COc1cc(-c2cc(F)c3c(c2)COc2nc(N(C)[C@@H]4C[C@H]5CC[C@@H](C4)N5)ccc2-3)cnn1 [Compound 254]
5. CN(c1ccc2c(n1)OCc1cc(-c3ccc(=O)n(C)c3)ccc1-2)[C@@H]1C[C@H]2CC[C@@H](C1)N2 [Compound 158]
6. c1cc2c(cc1-c1cn[nH]c1)COc1nc(O[C@@H]3C[C@H]4CC[C@@H](C3)N4)ccc1-2 [Compound 218]

1: > 10 µM; 2: 1 to 10 µM; 3: > 10 µM; 4: 0.1 to 1 µM; 5: 1 to 10 µM; 6: 0.1 to 1 µM

Batch of 4 compounds: report AC50 for each.
1. CN(c1ccc2c(n1)OCc1cc(-c3ccc(=O)[nH]c3)ccc1-2)[C@@H]1C[C@H]2CC[C@@H](C1)N2 [Compound 157]
2. COc1cc(-c2ccc3c(c2)COc2nc(N4CCC(NC(C)(C)C(C)C)C4)ccc2-3)cnn1 (stereo not drawn) [Compound 316]
3. COc1cc(-c2ccc3c(c2)COc2nc(N4CCN[C@H](C(C)(C)C)C4)ccc2-3)cnn1 [Compound 317]
4. CN(c1ccc2c(n1)OCc1cc(-c3cnn(C)c(=O)c3)ccc1-2)[C@@H]1C[C@H]2CC[C@@H](C1)N2 [Compound 160]

["1 to 10 µM", "0.1 to 1 µM", "0.1 to 1 µM", "< 0.1 µM"]

Respectfully, I request AC50 for each entry included below.
1. Cc1cn(-c2ccc3c(c2)COc2nc(N(C)[C@@H]4C[C@H]5CC[C@@H](C4)N5)ccc2-3)cn1 [Compound 164]
2. CC1(C)CC(N(c2ccc3c(n2)OCc2cc(-n4cccn4)ccc2-3)C2CC2)CC(C)(C)N1 [Compound 204]
3. CCN(CC)C1CCN(c2ccc3c(n2)OCc2cc(-c4cnnc(OC)c4)ccc2-3)C1 (stereo not drawn) [Compound 321]

0.1 to 1 µM
> 10 µM
1 to 10 µM

# credit: patent US20240400584A1
